- testProtocol: Acute Toxicity Test (LD50)
- assaySetup: in vivo
measuredEndpoint: LD50

// known answers, use as guide
[[record]]
compound = "O=C(NCCCCCCNC(=O)n1cc(F)c(=O)[nH]c1=O)Nc1cccnc1 [Experiment 18]"
measuredresult = "> 30 mg/kg"

[[record]]
compound = "NS(=O)(=O)c1ccc(NC(=O)NCCCCCCNC(=O)n2cc(F)c(=O)[nH]c2=O)cc1 [Experiment 20]"
measuredresult = "> 240 mg/kg"

[[record]]
compound = "O=C(NCCCCCCNC(=O)n1cc(F)c(=O)[nH]c1=O)NNC(=O)c1cccnc1 [Experiment 22]"
measuredresult = "> 400 mg/kg"

[[record]]
compound = "O=C(NCCCCCCNC(=O)n1cc(F)c(=O)[nH]c1=O)Nc1ccccn1 [Experiment 19]"
measuredresult = "> 240 mg/kg"

[[record]]
compound = "O=C(NCc1c[nH]c2ccccc12)n1cc(F)c(=O)[nH]c1=O [Experiment 4]"
measuredresult = "> 400 mg/kg"


Exam item: I would be grateful if you could share the reported LD50 for O=C(NCCCCCCNC(=O)n1cc(F)c(=O)[nH]c1=O)NNC(=O)c1ccncc1 [Experiment 23] .
Marked response: > 240 mg/kg

Exam item: Param item: O=C(Nc1cccs1)n1cc(F)c(=O)[nH]c1=O [Experiment 1]
Marked response: > 240 mg/kg

Exam item: Repeat with O=C(Nc1c[nH]c2ccccc12)n1cc(F)c(=O)[nH]c1=O [Experiment 3]
Marked response: > 400 mg/kg
